Sourced from PubChem BioAssay AID1159580

assay: chemical genetic growth profiling, strain panel (AID 1159580);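 further: tested at 20 µM; growth read once vehicle control cultures reached saturation at 30 °C; 1 = growth at the plate median or of vehicle wells; lower values mean less growth of the strain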; conditions: S. cerevisiae deletion strains, growth OD, locus YPL209C, strain IPL1, active compounds read low
The whole screen tested about 5,500 compounds, of which about 2,000 (36%) were called active. Inconclusive results (about 18%) are left out. This is one part of the list.
Entries and their normalized growth values follow.
Respond with the number and no other words.

In [3]: df
Out[3]:
                               cpd_smiles       readout_name  obs_value
0           Clc1ccccc1-c1csc(-c2cccnc2)n1  normalized growth      0.909
1  O=[N+]([O-])c1ccsc1Oc1cccc(C(F)(F)F)c1  normalized growth      0.984

What normalized growth value was documented for this compound, "COc1ccc(-c2cn3cc(C)ccc3n2)cc1" ?
0.962

Give its normalized growth value. Item: "Cc1ccccc1/C=C/c1c[nH]c2ccccc12"
0.95

For the compound shown here, "Nc1ccccc1C(=O)Nc1cc(C(F)(F)F)cc(C(F)(F)F)c1" , give the reported normalized growth.
0.952

Can you share its normalized growth? I mean this compound: "Clc1ccc(CSc2nccn2-c2cc(Cl)ccc2Cl)cc1"
0.96

---

Measured normalized growth of individual entries
assay: chemical genetic growth profiling, strain panel (AID 1159580); details: S. cerevisiae deletion strains, growth OD, locus YML016C, strain PPZ1, active compounds read low
About 2,000 (36%) of roughly 5,500 compounds were called active. Not shown: some 18% with an inconclusive outcome. The list shows a part of the results.
// return just the number, without any unit appended

Here's what some known entries look like.
                                   molecule       readout_name  obs_value
0                 CN(C)C(=O)Oc1ccc[n+](C)c1  normalized growth       1.01
1  CC(=O)OC1CC(OC(C)=O)C2(C)C(CC(OC(C)=O)C3(C)C2CCC2(C)C(c4ccoc4)OC(=O)C4OC423)C1(C)C (centres undefined)  normalized growth      0.993
2  OC[C@H]1O[C@@H](n2cnc3c(NCc4ccco4)ncnc32)[C@H](O)[C@@H]1O  normalized growth       1.01
3  COc1ccc2c(c1)OCC(Cc1ccc(OC)c(O)c1)C2=O (centres undefined)  normalized growth      0.967
4  CC(=O)OC1CC(O)C(C)(C)C2CC(=O)C3(C)C(CCC4(C)C(c5ccoc5)OC(=O)C5OC543)C12C (centres undefined)  normalized growth      0.985

Would you kindly share the measured normalized growth for COc1cc2c(cc1OC)C1(O)C(=O)c3ccc(O)c(C(=O)O)c3OC1CO2 (centres undefined) ?
1.01

Fill blank: measured normalized growth of the molecule COc1ccc2c(c1)OCC(Cc1ccc(OC)c(OC(C)=O)c1)C2=O (centres undefined) is ____.
1

Which normalized growth is reported for this molecule? CC1(C)C(=O)[C@@H]2O[C@@H]2[C@@]2(C)C1C[C@@H](O)[C@]1(C)C2CC[C@@]2(C)[C@H](c3ccoc3)OC(=O)C3OC321 (some centres undefined)
1.01

Data request, read-out normalized growth, for "c1ccc2c(CC3=NCCN3)cccc2c1"
1.01

---

test: chemical genetic growth profiling, strain panel (AID 1159580); details: S. cerevisiae deletion strains, growth OD, locus YNL224C, strain SQS1, active compounds read low
Screen size: about 5,500 compounds; about 2,000 (36%) were called active. About 18% were inconclusive and are not listed. The list shows a part of the results.
Form field: normalized growth (one value per entry).
Just the number, please, no unit after it.

                                   compound  obs_value
0                         NCCCNCCSP(=O)(O)O      0.988
1       O=C(O)C1CCCNC1 (stereo unspecified)       1.03
2  CNc1ccc2oc(C[C@H]3O[C@@]4(CC[C@H]3C)O[C@H]([C@H](C)C(=O)c3ccc[nH]3)[C@H](C)C[C@H]4C)nc2c1C(=O)O      0.924
3  COc1ccccc1N1CCN(CCCCNS(=O)(=O)c2cccc3c(N(C)C)cccc23)CC1       1.04
4  Cc1nc(-c2ccc(-c3ccc(C(=O)N4CCc5cc6c(cc54)C4(CCN(C)CC4)CO6)cc3)c(C)c2)no1      0.961
5  COc1cc2nc(N3CC=[N+](C(=O)c4ccco4)CC3)nc(N)c2cc1OC       1.06

Field request: normalized growth | item: S=C(S)OC1CC2CC1C1CCCC21 (stereo unspecified)
1.06

Which normalized growth value belongs to "CC(C)=CCC/C(C)=C/CC/C(C)=C/CSc1ccccc1C(=O)O" ?
0.974

Reported normalized growth, compound "NCCCCNCCCN" : ____
0.98

Item under review: CCCCCC(O)c1cccc(OCc2ccc3ccccc3n2)c1 (stereo unspecified) . Reported normalized growth?
0.99

What value of normalized growth has been recorded for this entry: "Cc1ccccc1/C=C/C1=NCCN1"
0.991

# get_value(readout='normalized growth', item= COc1cc2nc(N3CCN(C(=O)OCc4ccccc4)C(C(=O)NC(C)(C)C)C3)nc(N)c2cc1OC (stereo unspecified) )
1.03

Param item = "CC(=O)NCCc1c[nH]c2ccc(O)cc12" ; retrieve measured normalized growth.
1.02

# input compound: "CCCn1c(=O)c2[nH]c(C3CCCC3)nc2n(CCC)c1=O" ; wanted: its normalized growth
0.975

May I ask what normalized growth has been recorded for Clc1ccc(C(c2ccc(Cl)cc2)n2cc[n+](CC(OCc3ccc(Cl)cc3Cl)c3ccc(Cl)cc3Cl)c2)cc1 (stereo unspecified) ?
0.0691

Looking for the measured normalized growth of "NC(N)=NCCCCN=C(N)N" , can you help?
1.01

// lookup normalized growth for "CCCN(CCC)C1Cc2cc(OC)c(OC)cc2C1"
0.994

Item under review: C[C@]12CC[C@H]3[C@@H](CCC4C[C@H](O)CC[C@@]43C)[C@@H]1CC[C@@H]2O (stereo partly specified) . Reported normalized growth?
1.01

For the compound "CCCNC(=O)NS(=O)(=O)c1ccc(Cl)cc1" , what normalized growth is on record?
0.983

Value lookup for normalized growth; key = "C[C@@H](Oc1ccc(Oc2cnc3ccc(Cl)cc3n2)cc1)C(=O)O"
0.997

Any idea what its normalized growth is? The compound is "Brc1ccc([C@H]2CN3CCSC3=N2)cc1"
1.01

---

assay: chemical genetic growth profiling, strain panel (AID 1159580);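 further: tested at 20 µM; growth read once vehicle control cultures reached saturation at 30 °C; 1 = growth at the plate median or of vehicle wells; lower values mean less growth of the strain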; conditions: S. cerevisiae deletion strains, growth OD, locus YNL271C, strain bni1, active compounds read low
In all, about 5,500 compounds went through this assay and about 2,000 (36%) were called active. Inconclusive results (about 18%) are left out. Some of the results follow.
Binary call on normalized growth with cut-off 1: strictly below means met, and equality or higher means not met.

In [3]: df
Out[3]:
                                   compound  label_value
0  C[C@]12CCC3c4ccc(OC(=O)CCC(=O)O)cc4CCC3C1CCC2=O (stereo partly drawn)          met
1                                NCCCC(=O)O      not met

With those in mind, consider the next compound.
In plain terms, does C[C@]12CCC3c4ccc(O)cc4CCC3C1CCC2=O (stereo partly drawn) come in under 1 for normalized growth?
met

---

assay: chemical genetic growth profiling, strain panel (AID 1159580);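 further: tested at 20 µM; growth read once vehicle control cultures reached saturation at 30 °C; 1 = growth at the plate median or of vehicle wells; lower values mean less growth of the strain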; settings: S. cerevisiae deletion strains, growth OD, locus YEL061C, strain CIN8, active compounds read low
Hit rate of the full screen: of about 5,500 compounds, about 2,000 (36%) were called active. Inconclusive results (about 18%) are left out. Some of the results follow.
Here the recorded normalized growth is given for each entry.
Answer with a bare number; do not write a unit.

The following compounds have reported results that may help.
>>> df
                                   compound  obs_value
0  COC(=O)/C(C)=C\CC12OC(C)(C)C3CC(C=C4C(=O)c5c(OC)c6c(c(CC=C(C)C)c5OC431)OC(C)(CCC=C(C)C)C=C6)C2=O (stereo unspecified)          1
1  O=S(=O)(c1ccc(Cl)cc1)c1cc(C(F)(F)F)cc(C(F)(F)F)c1      0.963
2                 FC(F)(F)c1cc(Cl)c2nsnc2c1       0.99
3        CC(C)(C)NC(=S)NC1CCN(Cc2ccccc2)CC1       1.02
4  CC(=O)OCC(=O)[C@@]1(O)CCC2C3CCC4=CC(=O)C=CC4(C)C3[C@@H](O)C[C@@]21C (stereo partly specified)          1

Attention now turns to another entry.
What value of measured normalized growth is listed for "O=C1NC2(CCN(Cc3ccccc3)CC2)Oc2ccccc21" ?
1.02

---

assay: chemical genetic growth profiling, strain panel (AID 1159580);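 further: tested at 20 µM; growth read once vehicle control cultures reached saturation at 30 °C; 1 = growth at the plate median or of vehicle wells; lower values mean less growth of the strain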; conditions: S. cerevisiae deletion strains, growth OD, locus YJR066W, strain TOR1 (second series), active compounds read low
About 2,000 (36%) of roughly 5,500 compounds were called active. Inconclusive results (about 18%) are left out. The list shows a part of the results.
Examples of compounds with documented normalized growth follow.
Reply: number alone, nothing else.

# annotated cases, reported normalized growth shown
>>> df
                                 cpd_smiles       readout_name  obs_value
0  Nc1ccccc1C(=O)Nc1cc(C(F)(F)F)cc(C(F)(F)F)c1  normalized growth      0.997
1              Clc1cc(Cl)cc(C=NCc2ccccc2)c1  normalized growth      0.585

For the compound "O=[N+]([O-])c1ccsc1Oc1cccc(C(F)(F)F)c1" , what normalized growth is on record?
0.71
